Target: human Fc (human)
Experiment: ELISA, negative control
EXPERIMENTAL_READOUT: optical density (OD)
Write the number in OD without appending the unit.

// below: answered binders
{"columns": ["BINDER", "UNITS_LABEL", "optical density"],
 "data": [
  ["373_A07 (antibody, V domains shown) VH: EVQLLESGGGLVQPGGSLRLSCAASGFTFSSYSMNWVRQAPGKGLEWVSNINYNGGYTGYADSVKGRFTISRDNSKNTLYLQMNSLRAEDTAVYYCARSATWHDTHLDYWGQGTLVTVSS VL: DIQMTQSPSSLSASVGDRVTITCRASQSILTYVNWYQQKPGKAPKLLIYAATSRASGVPSRFSGSGSGTDFTLTISSLQPEDFATYYCQQSDNLPLTFGGGTKVEIK", "OD", 0.177],
  ["371_H06 (antibody, V domains shown) VH: EVQLLESGGGLVQPGGSLRLSCAASGFTFDSYGMNWVRQAPGKGLEWVSGINYNGGYTSYADSVKGRFTISRDNSKNTLYLQMNSLRAEDTAVYYCARGANWHDTALDYWGQGTLVTVSS VL: DIQMTQSPSSLSASVGDRVTITCRASQSISSYLNWYQQKPGKAPKLVIYAVTSRASGVPSRFSGSGSGTDFTLTISSLQPEDFATYYCQQSYDLPLTFGGGTKVEIK", "OD", 0.346],
  ["368_B10 (antibody, V domains shown) VH: EVQLLESGGGLVQPGGSLRLSCAASGFTFDSYGMHWVRQAPGKGLEWVASINYNGGYTSYADSVKGRFTISRDNSKNTLYLQMNSLRAEDTAVYYCARAANWHDTALDYWGQGTLVTVSS VL: DIQMTQSPSSLSASVGDRVTITCRASQSILTYLNWYQQKPGKAPKLVIYAATSRASGVPSRFSGSGSGTDFTLTISSLQPEDFATYYCQQSDELPLTFGGGTKVEIK", "OD", 0.412]
]}

Q: Please give the measured optical density for this binder: 376_B03 (antibody, V domains shown) VH: EVQLLESGGGLVQPGGSLRLSCAASGFTFSSYSMNWVRQAPGKGLEWVAGINYNSGYKSYADSVKGRFTISRDNSKNTLYLQMNSLRAEDTAVYYCARGANWHDTALDYWGQGTLVTVSS VL: DIQMTQSPSSLSASVGDRVTITCRASQSILSYVNWYQQKPGKAPKLVIYAVTSRHSGVPSRFSGSGSGTDFTLTISSLQPEDFATYYCQQSYDSPLTFGGGTKVEIK
Result: 0.253

Q: Please give the measured optical density for this binder: 373_F08 (antibody, V domains shown) VH: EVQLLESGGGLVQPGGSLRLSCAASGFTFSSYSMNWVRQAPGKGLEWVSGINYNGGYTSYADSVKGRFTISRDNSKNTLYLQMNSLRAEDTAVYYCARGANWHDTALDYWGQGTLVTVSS VL: DIQMTQSPSSLSASVGDRVTITCRASQSILTYLNWYQQKPGKAPKLLIYAATSRASGVPSRFSGSGSGTDFTLTISSLQPEDFATYYCQQSYDTPLTFGGGTKVEIK
Result: 0.202

Q: Please give the measured optical density for this binder: 375_G05 (antibody, V domains shown) VH: EVQLLESGGGLVQPGGSLRLSCAASGFTFSSYSMNWVRQAPGKGLEWVAGINYNGGYTSYADSVKGRFTISRDNSKNTLYLQMNSLRAEDTAVYYCARGANWHDTALDYWGQGTLVTVSS VL: DIQMTQSPSSLSASVGDRVTITCRASQSIVSYLNWYQQKPGKAPKLLIYAVTSRASGVPSRFSGSGSGTDFTLTISSLQPEDFATYYCQQSYDSPLTFGGGTKVEIK
Result: 0.21

Q: Please give the measured optical density for this binder: 370_B01 (antibody, V domains shown) VH: EVQLLESGGGLVQPGGSLRLSCAASGFTFDDYGMHWVRQAPGKGLEWVSGINYNGGYKSYADSVKGRFTISRDNSKNTLYLQMNSLRAEDTAVYYCARAANWHDTALDYWGQGTLVTVSS VL: DIQMTQSPSSLSASVGDRVTITCRASQSILSYVNWYQQKPGKAPKLLIYVASSRASGVPSRFSGSGSGTDFTLTISSLQPEDFATYYCQQSYSLPLTFGGGTKVEIK
Result: 0.47

Q: Please give the measured optical density for this binder: 367_E05 (antibody, V domains shown) VH: EVQLLESGGGLVQPGGSLRLSCAASGFTFSSYGMNWVRQAPGKGLEWVAGINYNGGYTSYADSVKGRFTISRDNSKNTLYLQMNSLRAEDTAVYYCARGANWHDTHLDYWGQGTLVTVSS VL: DIQMTQSPSSLSASVGDRVTITCRASQSILSYLNWYQQKPGKAPKLLIYAATSRHSGVPSRFSGSGSGTDFTLTISSLQPEDFATYYCQQSYDSPLTFGGGTKVEIK
Result: 0.333

Q: Please give the measured optical density for this binder: 365_A02 (antibody, V domains shown) VH: EVQLLESGGGLVQPGGSLRLSCAASGFTFDSYSMNWVRQAPGKGLEWVSNINYNGGYTSYADSVKGRFTISRDNSKNTLYLQMNSLRAEDTAVYYCARSATWHDTHLDYWGQGTLVTVSS VL: DIQMTQSPSSLSASVGDRVTITCRASQSILTYVNWYQQKPGKAPKLLIYAATSRASGVPSRFSGSGSGTDFTLTISSLQPEDFATYYCQQSYNSPLTFGGGTKVEIK
Result: 0.374

Q: Please give the measured optical density for this binder: 373_D02 (antibody, V domains shown) VH: EVQLLESGGGLVQPGGSLRLSCAASGFTFSSYSMNWVRQAPGKGLEWVSNINYNSGYKGYADSVKGRFTISRDNSKNTLYLQMNSLRAEDTAVYYCARSATWHDTHLDYWGQGTLVTVSS VL: DIQMTQSPSSLSASVGDRVTITCRASQSILSYLNWYQQKPGKAPKLLIYAATSLASGVPSRFSGSGSGTDFTLTISSLQPEDFATYYCQQSYDLPLTFGGGTKVEIK
Result: 0.18
